Assayed System: Sirt1 (Homo sapiens)
Sequence (Q96EB6 2-747): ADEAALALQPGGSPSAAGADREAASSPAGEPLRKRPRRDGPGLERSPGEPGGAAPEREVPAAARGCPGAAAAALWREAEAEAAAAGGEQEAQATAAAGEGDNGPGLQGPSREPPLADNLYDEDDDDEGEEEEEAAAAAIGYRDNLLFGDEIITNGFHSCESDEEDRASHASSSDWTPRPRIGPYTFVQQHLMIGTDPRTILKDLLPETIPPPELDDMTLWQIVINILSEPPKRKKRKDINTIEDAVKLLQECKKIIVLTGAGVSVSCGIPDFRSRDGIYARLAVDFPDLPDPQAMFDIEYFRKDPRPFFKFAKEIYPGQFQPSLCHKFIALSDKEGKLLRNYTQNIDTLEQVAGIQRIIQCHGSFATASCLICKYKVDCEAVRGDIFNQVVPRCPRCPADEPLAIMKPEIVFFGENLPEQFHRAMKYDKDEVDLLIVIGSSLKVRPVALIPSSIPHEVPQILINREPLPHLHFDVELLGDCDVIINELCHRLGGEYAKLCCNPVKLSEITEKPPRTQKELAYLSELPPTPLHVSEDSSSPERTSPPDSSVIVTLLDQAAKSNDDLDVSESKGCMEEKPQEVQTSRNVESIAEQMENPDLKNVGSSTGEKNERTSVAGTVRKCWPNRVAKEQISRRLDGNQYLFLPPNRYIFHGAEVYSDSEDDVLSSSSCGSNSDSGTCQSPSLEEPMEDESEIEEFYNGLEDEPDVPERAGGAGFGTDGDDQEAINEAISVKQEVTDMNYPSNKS
Reported Metric: IC50 (µM)
Write it as a number; the unit µM goes unstated.

The compound listed as Nc1ncnc2c1ncn2[C@@H]1O[C@H](COP(=O)(O)OP(=O)(O)OC[C@H]2OC(O)[C@H](O)[C@@H]2O)[C@@H](O)[C@H]1O (stereo partly shown) [ADP-ribose] has a reported IC50 of 77
